Attribution: the supplement of paper PMC11061612

Test system: SNU-C1 (Colorectal Carcinoma)
method.description: Bliss excess, mean over the matrix (fraction); higher = more synergy
Listing of entries alongside the reported Bliss excess.
metric: Bliss excess

CN(C)CCCOc1ccc(-c2ccc3ncc4c(c3c2)n(C2CCOCC2)c(=O)n4C)cn1 [AZD0156] + CCN(CCO)CCCOc1ccc2c(Nc3cc(CC(=O)Nc4cccc(F)c4)[nH]n3)ncnc2c1 [AZD2811] (first compound max 1 µM, 7x7, partner max 1 µM)    -0.0245
CC1(C)CCC(CN2CCN(c3ccc(C(=O)NS(=O)(=O)c4ccc(NCC5CCOCC5)c([N+](=O)[O-])c4)c(Oc4cnc5[nH]ccc5c4)c3)CC2)=C(c2ccc(Cl)cc2)C1 [Venetoclax] + C1CN(CCC1(C(=O)N[C@@H](CCO)C2=CC=C(C=C2)Cl)N)C3=NC=NC4=C3C=CN4 [Capivasertib] (first compound max 1 µM, 7x7, partner max 3 µM)    -0.109
Cc1cc2ncnn2cc1Nc1ncc2c(n1)n(C1CCOCC1)c(=O)n2C [AZD7648] + C=CCn1c(=O)c2cnc(Nc3ccc(N4CCN(C)CC4)cc3)nc2n1-c1cccc(C(C)(C)O)n1 [AZD1775] (first compound max 10 µM, partner max 1 µM)    -0.0209
COc1cccc(OCCCN)c1-c1cc(Nc2cnc(C#N)cn2)n[nH]1 [Prexasertib] + C=CCn1c(=O)c2cnc(Nc3ccc(N4CCN(C)CC4)cc3)nc2n1-c1cccc(C(C)(C)O)n1 [AZD1775] (first compound max 1 µM, partner max 1 µM)    0.0175
CC1(C)CCC(CN2CCN(c3ccc(C(=O)NS(=O)(=O)c4ccc(NCC5CCOCC5)c([N+](=O)[O-])c4)c(Oc4cnc5[nH]ccc5c4)c3)CC2)=C(c2ccc(Cl)cc2)C1 [Venetoclax] + COc1cc(Nc2ncc3c(n2)-c2ccc(Cl)cc2C(c2c(F)cccc2OC)=NC3)ccc1C(=O)O [Alisertib] (first compound max 1 µM, 7x7, partner max 10 µM)    -0.0323
CC1(C)CCC(CN2CCN(c3ccc(C(=O)NS(=O)(=O)c4ccc(NCC5CCOCC5)c([N+](=O)[O-])c4)c(Oc4cnc5[nH]ccc5c4)c3)CC2)=C(c2ccc(Cl)cc2)C1 [Venetoclax] + CS(=O)(=O)CCNCc1ccc(-c2ccc3ncnc(Nc4ccc(OCc5cccc(F)c5)c(Cl)c4)c3c2)o1 [Lapatinib] (first compound max 1 µM, 7x7, partner max 10 µM)    -0.0495
C[C@@H](Nc1cc(F)cc(F)c1)c1cc(C(=O)N(C)C)cc2c(=O)cc(N3CCOCC3)oc12 [AZD8186] + CC(=O)c1c(C)c2cnc(Nc3ccc(N4CCNCC4)cn3)nc2n(C2CCCC2)c1=O [Palbociclib] (first compound max 10 µM, 7x7, partner max 10 µM)    0.0065

====

Test system: EW-18 (Ewing's Sarcoma)
method.description: Bliss excess, mean over the matrix (fraction); higher = more synergy
Items are presented alongside their recorded Bliss excess.
metric: Bliss excess

COc1nnc2ccc(N3CCC(c4ccc(OCCN5CCN(C)C(=O)[C@H]5C)cc4)CC3)nn12 [AZD5153] + CC1(C)CCC(CN2CCN(c3ccc(C(=O)NS(=O)(=O)c4ccc(NCC5CCOCC5)c([N+](=O)[O-])c4)c(Oc4cnc5[nH]ccc5c4)c3)CC2)=C(c2ccc(Cl)cc2)C1 [Venetoclax] (first compound max 1 µM, 7x7, partner max 1 µM)    -0.0371
Cc1cc2ncnn2cc1Nc1ncc2c(n1)n(C1CCOCC1)c(=O)n2C [AZD7648] + CCN(CCO)CCCOc1ccc2c(Nc3cc(CC(=O)Nc4cccc(F)c4)[nH]n3)ncnc2c1 [AZD2811] (first compound max 10 µM, 7x7, partner max 1 µM)    -0.0154
COc1cccc(OCCCN)c1-c1cc(Nc2cnc(C#N)cn2)n[nH]1 [Prexasertib] + C=CCn1c(=O)c2cnc(Nc3ccc(N4CCN(C)CC4)cc3)nc2n1-c1cccc(C(C)(C)O)n1 [AZD1775] (first compound max 1 µM, partner max 1 µM)    -0.0615
COc1nnc2ccc(N3CCC(c4ccc(OCCN5CCN(C)C(=O)[C@H]5C)cc4)CC3)nn12 [AZD5153] + CN(CC[C@H](CSC1=CC=CC=C1)NC2=C(C=C(C=C2)S(=O)(=O)NC(=O)C3=CC=C(C=C3)N4CCC(CC4)[C@H](C5=CC=CC=C5C6=CC=C(C=C6)Cl)O)S(=O)(=O)C(F)(F)F)CCO [AZD4320] (first compound max 1 µM, 7x7, partner max 1 µM)    0.0033
NC1(C(=O)N[C@@H](CCO)c2ccc(Cl)cc2)CCN(c2ncnc3[nH]ccc23)CC1 [Capivasertib] + CC(=O)c1c(C)c2cnc(Nc3ccc(N4CCNCC4)cn3)nc2n(C2CCCC2)c1=O [Palbociclib] (first compound max 10 µM, 7x7, partner max 10 µM)    -0.0276
COc1cccc(OCCCN)c1-c1cc(Nc2cnc(C#N)cn2)n[nH]1 [Prexasertib] + Cc1cc2ncnn2cc1Nc1ncc2c(n1)n(C1CCOCC1)c(=O)n2C [AZD7648] (first compound max 1 µM, 7x7, partner max 10 µM)    -0.0679
CN(CCO)CC[C@H](CSc1ccccc1)Nc1ccc(S(=O)(=O)NC(=O)c2ccc(N3CCC([C@@H](O)c4ccccc4-c4ccc(Cl)cc4)CC3)cc2)cc1S(=O)(=O)C(F)(F)F [AZD4320] + CCN(CCO)CCCOc1ccc2c(Nc3cc(CC(=O)Nc4cccc(F)c4)[nH]n3)ncnc2c1 [AZD2811] (first compound max 1 µM, 7x7, partner max 1 µM)    -0.0795

====

System: KINGS-1 (Low Grade Glioma)
method.description: Bliss excess, mean over the matrix (fraction); higher = more synergy
metric: Bliss excess

CC(=O)c1c(C)c2cnc(Nc3ccc(N4CCNCC4)cn3)nc2n(C2CCCC2)c1=O [Palbociclib] + Cn1cnc2c(F)c(Nc3ccc(Br)cc3Cl)c(C(=O)NOCCO)cc21 [Selumetinib] (first compound max 10 µM, 7x7, partner max 10 µM)    -0.0272
Cc1c2c(nn1C)CSCc1cc(n(C)n1)CSc1cc(c3ccccc3c1)OCCCc1c(C(=O)O)n(C)c3c-2c(Cl)ccc13 [AZD5991] + C[C@@H](Nc1cc(F)cc(F)c1)c1cc(C(=O)N(C)C)cc2c(=O)cc(N3CCOCC3)oc12 [AZD8186] (first compound max 1 µM, 7x7, partner max 3 µM)    -0.0111
CC1(C)CCC(CN2CCN(c3ccc(C(=O)NS(=O)(=O)c4ccc(NCC5CCOCC5)c([N+](=O)[O-])c4)c(Oc4cnc5[nH]ccc5c4)c3)CC2)=C(c2ccc(Cl)cc2)C1 [Venetoclax] + Cc1cc2ncnn2cc1Nc1ncc2c(n1)n(C1CCOCC1)c(=O)n2C [AZD7648] (first compound max 1 µM, 7x7, partner max 10 µM)    -0.0474
COc1nnc2ccc(N3CCC(c4ccc(OCCN5CCN(C)C(=O)[C@H]5C)cc4)CC3)nn12 [AZD5153] + C=CCn1c(=O)c2cnc(Nc3ccc(N4CCN(C)CC4)cc3)nc2n1-c1cccc(C(C)(C)O)n1 [AZD1775] (first compound max 1 µM, partner max 1 µM)    -0.0123

====

Item-by-item account of combination Emax
Test system: JHH-7 (Hepatocellular Carcinoma)
method.description: combination Emax (second highest fraction inhibited in the dose matrix, 72 h); higher = more inhibition; extreme values may be limits of the assay
metric: combination Emax

C[C@@H](Oc1cc(-c2cnn(C3CCNCC3)c2)cnc1N)c1c(Cl)ccc(F)c1Cl [Crizotinib] + CC1=C(C(=CC=C1)Cl)NC(=O)C2=CN=C(S2)NC3=CC(=NC(=N3)C)N4CCN(CC4)CCO [Dasatinib] (first compound max 10 µM, 7x7, partner max 2 µM)    0.422
N#Cc1cnc(Nc2cc(NC[C@H]3CNCCO3)c(C(F)(F)F)cn2)cn1 [SRA737] + O=c1[nH]cc(F)c(=O)[nH]1 [5-Fluorouracil] (first compound max 10 µM, 7x7, partner max 20 µM)    0.392
NC1(C(=O)N[C@@H](CCO)c2ccc(Cl)cc2)CCN(c2ncnc3[nH]ccc23)CC1 [Capivasertib] + C[C@@H]1COCCN1C2=NC(=NC(=C2)C3(CC3)[S@](=N)(=O)C)C4=C5C=CNC5=NC=C4 [AZD6738] (first compound max 10 µM, 7x7, partner max 10 µM)    0.39
C=CCn1c(=O)c2cnc(Nc3ccc(N4CCN(C)CC4)cc3)nc2n1-c1cccc(C(C)(C)O)n1 [AZD1775] + C1CN(CCC1(C(=O)N[C@@H](CCO)C2=CC=C(C=C2)Cl)N)C3=NC=NC4=C3C=CN4 [Capivasertib] (first compound max 3 µM, partner max 3 µM)    0.727

====

System: LOU-NH91 (Squamous Cell Lung Carcinoma)
method.description: Bliss excess, mean over the matrix (fraction); higher = more synergy
# binarize Bliss excess: threshold 0.04 inclusive, high side rule met, low side rule not met

CCc1c2c(nc3ccc(O)cc13)-c1cc3c(c(=O)n1C2)COC(=O)[C@]3(O)CC [SN-38] + CN(C)CCCOc1ccc(-c2ccc3ncc4c(c3c2)n(C2CCOCC2)c(=O)n4C)cn1 [AZD0156] (first compound max 0.3 µM, 7x7, partner max 1 µM)    rule not met
COc1nnc2ccc(N3CCC(c4ccc(OCCN5CCN(C)C(=O)[C@H]5C)cc4)CC3)nn12 [AZD5153] + Cn1cnc2c(F)c(Nc3ccc(Br)cc3Cl)c(C(=O)NOCCO)cc21 [Selumetinib] (first compound max 1 µM, 7x7, partner max 10 µM)    rule not met
CN(C)CCCOc1ccc(-c2ccc3ncc4c(c3c2)n(C2CCOCC2)c(=O)n4C)cn1 [AZD0156] + C=CCn1c(=O)c2cnc(Nc3ccc(N4CCN(C)CC4)cc3)nc2n1-c1cccc(C(C)(C)O)n1 [AZD1775] (first compound max 1 µM, partner max 1 µM)    rule not met
Cc1cc2ncnn2cc1Nc1ncc2c(n1)n(C1CCOCC1)c(=O)n2C [AZD7648] + CN(C)CCCOc1ccc(-c2ccc3ncc4c(c3c2)n(C2CCOCC2)c(=O)n4C)cn1 [AZD0156] (first compound max 10 µM, 7x7, partner max 1 µM)    rule met
COc1cccc(OCCCN)c1-c1cc(Nc2cnc(C#N)cn2)n[nH]1 [Prexasertib] + C[C@@H]1COCCN1C2=NC(=NC(=C2)C3(CC3)[S@](=N)(=O)C)C4=C5C=CNC5=NC=C4 [AZD6738] (first compound max 1 µM, 7x7, partner max 10 µM)    rule not met
